The reported numbers originate from the supplement of paper PMC10307832.

Entries and their relative viability
# Tested on: NCI-H2170
# testProtocol: relative viability (nuclei count vs DMSO), 5 days (fraction); higher = more cells survive
# runConditions: first compound 0.02 µM
Provide a numeric answer; units are not to be included.

Past entries and their recorded results:
CN1CCN(CCOc2cc(OC3CCOCC3)c3c(Nc4c(Cl)ccc5c4OCO5)ncnc3c2)CC1 [Saracatinib] + CC1(C)CCC(c2ccc(Cl)cc2)=C(CN2CCN(c3ccc(C(=O)NS(=O)(=O)c4ccc(N[C@H](CCN5CCOCC5)CSc5ccccc5)c(S(=O)(=O)C(F)(F)F)c4)cc3)CC2)C1 [Navitoclax] (partner 0.5 µM); 0.57
CN1CCN(CCOc2cc(OC3CCOCC3)c3c(Nc4c(Cl)ccc5c4OCO5)ncnc3c2)CC1 [Saracatinib] + Nc1nc2[nH]cc(CCc3ccc(C(=O)N[C@@H](CCC(=O)O)C(=O)O)cc3)c2c(=O)[nH]1 [Pemetrexed] (partner 0.2 µM); 0.25

// query Provide relative viability, system NCI-H2170, entry CCNC(=O)c1noc(-c2cc(C(C)C)c(O)cc2O)c1-c1ccc(CN2CCOCC2)cc1 [Luminespib] + CS(=O)(=O)N1CCN(Cc2cc3nc(-c4cccc5[nH]ncc45)nc(N4CCOCC4)c3s2)CC1 [Pictilisib] (partner 1 µM)
// result 0.223

====

Entries and their relative viability
# Tested on: EBC-1
# testProtocol: relative viability (nuclei count vs DMSO), 5 days (fraction); higher = more cells survive
# runConditions: first compound 0.01 µM

Cc1cn(-c2cc(NC(=O)c3ccc(C)c(Nc4nccc(-c5cccnc5)n4)c3)cc(C(F)(F)F)c2)cn1 [Nilotinib] + O=C(c1cc(Cc2n[nH]c(=O)c3ccccc23)ccc1F)N1CCN(C(=O)C2CC2)CC1 [Olaparib] (partner 8 µM); 0.755

Then there is this compound:
// query Give a short answer stating reported relative viability for Cc1cn(-c2cc(NC(=O)c3ccc(C)c(Nc4nccc(-c5cccnc5)n4)c3)cc(C(F)(F)F)c2)cn1 [Nilotinib] + C[C@]1(O)C[C@@H](c2nc(-c3ccc4ccc(-c5ccccc5)nc4c3)c3c(N)nccn32)C1 [Linsitinib] (partner 1 µM) .
// result 1.14

====

# Test system: NCI-H1437
# testProtocol: relative viability (nuclei count vs DMSO), 5 days (fraction); higher = more cells survive
# runConditions: first compound 0.253 µM
Label key: fulfilled means relative viability under 0.5; not fulfilled means relative viability of 0.5 or more.

Observe how each entry below is paired with its result.
Nc1cccc2c1CN(C1CCC(=O)NC1=O)C2=O (stereo not given) [Lenalidomide] + N=C(N)NC(=N)NCCc1ccccc1 [Phenformin] (partner 250 µM); fulfilled
Nc1cccc2c1CN(C1CCC(=O)NC1=O)C2=O (stereo not given) [Lenalidomide] + COc1cccc2cc(-c3nc([C@H]4CC[C@H](C(=O)O)CC4)n4ncnc(N)c34)[nH]c12 [OSI-027] (partner 0.5 µM); not fulfilled
Nc1cccc2c1CN(C1CCC(=O)NC1=O)C2=O (stereo not given) [Lenalidomide] + Cc1nc(Nc2ncc(C(=O)Nc3c(C)cccc3Cl)s2)cc(N2CCN(CCO)CC2)n1 [Dasatinib] (partner 0.075 µM); not fulfilled
Nc1cccc2c1CN(C1CCC(=O)NC1=O)C2=O (stereo not given) [Lenalidomide] + Nc1ncn([C@H]2C[C@H](O)[C@@H](CO)O2)c(=O)n1 [Decitabine] (partner 2 µM); not fulfilled

// query Could you please tell me whether relative viability recorded for Nc1cccc2c1CN(C1CCC(=O)NC1=O)C2=O (stereo not given) [Lenalidomide] + CC(=O)Nc1cccc(-n2c(=O)n(C3CC3)c(=O)c3c(Nc4ccc(I)cc4F)n(C)c(=O)c(C)c32)c1 [Trametinib] (partner 0.02 µM) is less than 0.5?
// result not fulfilled
